# assay: Inhibition of human recombinant wild type fructose-1,6-bisphosphatase (F16BP)
value.kind: IC50 (nM)

For orientation, consider the following solved cases.
chem.smiles: CCOc1cc2ncnc(Nc3cccc(-c4cncs4)c3)c2cc1OCC
IC50, nM: 980
//
chem.smiles: CCOc1cc2nc(CC(C)C)nc(Nc3cccc(-c4csc(C)n4)c3)c2cc1OCC
IC50, nM: 1700
//
chem.smiles: CCOc1cc2ncnc(Nc3cc(-c4csc(C)n4)ccc3Cl)c2cc1OCC
IC50, nM: 1700
//
chem.smiles: CCOc1cc2nc(CN3CCCC3)nc(Nc3cccc(-c4csc(C)n4)c3)c2cc1OCC
IC50, nM: 6100
//
chem.smiles: CCOc1cc2nc(CCl)nc(Nc3cccc(-c4csc(C)n4)c3)c2cc1OCC
IC50, nM: 870

1. CCOc1cc2ncnc(Nc3cccc(-c4csc(NN)n4)c3)c2cc1OCC
2. CCOc1cc2nc(CS(C)(=O)=O)nc(Nc3cccc(-c4csc(C)n4)c3)c2cc1OCC
3. CCOc1cc2ncnc(Nc3cccc(-c4ccccn4)c3)c2cc1OCC
Enquiry: Ordering: ascending IC50. Please respond with the labels ordered as the question requires.
Return: 3, 2, 1
(3: 390 nM, 2: 2100 nM, 1: 4500 nM)

---

# test.target: Fructose-1,6-bisphosphatase 1 (Rattus norvegicus, UniProt P19112, Q56H)
# Sequence (P19112 2-363 Q56H limits assumed): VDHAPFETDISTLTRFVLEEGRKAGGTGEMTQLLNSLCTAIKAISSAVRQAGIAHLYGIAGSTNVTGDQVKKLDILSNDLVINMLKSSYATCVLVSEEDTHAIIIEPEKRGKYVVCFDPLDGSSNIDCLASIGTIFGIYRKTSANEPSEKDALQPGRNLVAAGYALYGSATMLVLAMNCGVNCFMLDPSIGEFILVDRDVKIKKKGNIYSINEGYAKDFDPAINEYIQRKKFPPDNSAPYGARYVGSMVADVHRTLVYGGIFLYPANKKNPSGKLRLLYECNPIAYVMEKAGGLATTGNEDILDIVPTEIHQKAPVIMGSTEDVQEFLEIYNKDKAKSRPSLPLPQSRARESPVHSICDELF
# assay: Concentration required for 50% Inhibition against (F16BP) Fructose-1,6-bisphosphatase in rat single mutant(Gln55His) enzyme using malachite green assay
value.kind: pIC50
Worth noting: pIC50 values are minus log10 of concentrations stated in mol/L.

Value of measured pIC50 for the entry CCOc1cc2ncnc(Nc3cccc(-c4csc(C)n4)c3)c2cc1OCC : 5.42

---

# pIC50 listing for each entry below
# test.target: Fructose-1,6-bisphosphatase 1 (Rattus norvegicus, UniProt P19112, Q51K)
# Sequence (P19112 2-363 Q51K limits assumed): as the sequence (P19112 2-363 Q56H limits assumed) above, with Q50K, H55Q counted along it
# assay: Concentration required for 50% Inhibition against (F16BP) Fructose-1,6-bisphosphatase in rat single mutant (Gln50Lys) enzyme using malachite green assay
pIC50: −log10 of the molar value.

chem.smiles: CCOc1cc2ncnc(Nc3cccc(-c4csc(C)n4)c3)c2cc1OCC
pIC50: < 5.00

Readout pIC50 for CCOc1cc2ncnc(Nc3cccc(-c4csc(CO)n4)c3)c2cc1OCC , test system Fructose-1,6-bisphosphatase 1 (Rattus norvegicus, UniProt P19112, Q51K), was < 5.00

I looked up CCOc1cc2ncnc(Nc3cccc(-c4csc(C(N)=O)n4)c3)c2cc1OCC and its pIC50 for Fructose-1,6-bisphosphatase 1 (Rattus norvegicus, UniProt P19112, Q51K) was < 5.00

---

Below are IC50 values recorded for Epidermal growth factor receptor (Homo sapiens).
value.kind: IC50 (nM)

Check out these entries, answers already filled in.
chem.smiles: CCOc1cc2ncnc(Nc3cccc(-c4cscn4)c3)c2cc1OCC
endpoint.value: 18

chem.smiles: CCOc1cc2ncnc(Nc3cccc(-c4cncs4)c3)c2cc1OCC
endpoint.value: 11

chem.smiles: CCOc1cc2ncnc(Nc3cccc(-c4nccs4)c3)c2cc1OCC
endpoint.value: 2

1. CCOc1cc2ncnc(Nc3cccc(-c4csc(N)n4)c3)c2cc1OCC
2. C#Cc1cc(Nc2ncnc3cc(OC)c(OC)cc23)ccc1F
3. CCOc1cc2nc(C)nc(Nc3cccc(-c4csc(C)n4)c3)c2cc1OCC
Enquiry: Put the items in sequence by IC50, from largest down. Would you mind listing the labels in the order requested?
Return: 3, 1, 2

---

# assay: Inhibition of human recombinant wild type fructose-1,6-bisphosphatase (F16BP)
pIC50: −log10 of the molar value.
value.kind: pIC50

chem.smiles: CCOc1cc2nc(CCCl)nc(Nc3cccc(-c4csc(C)n4)c3)c2cc1OCC
endpoint.value: 6.00

chem.smiles: CCOc1cc2nc(CC)nc(Nc3cccc(-c4csc(C)n4)c3)c2cc1OCC
endpoint.value: 5.82

chem.smiles: CCOc1cc2nc(COC)nc(Nc3cccc(-c4csc(C)n4)c3)c2cc1OCC
endpoint.value: 5.85

---

# test.target: Fructose-1,6-bisphosphatase 1 (Rattus norvegicus, UniProt P19112, Q56H)
# assay: Concentration required for 50% Inhibition against (F16BP) Fructose-1,6-bisphosphatase in rat single mutant (Gln55His) enzyme using malachite green assay
value.kind: IC50 (nM)

chem.smiles: CCOc1cc2ncnc(Nc3cccc(-c4csc(C(N)=O)n4)c3)c2cc1OCC
test.target: Fructose-1,6-bisphosphatase 1 (Rattus norvegicus, UniProt P19112, Q56H)
value.kind: IC50
endpoint.unit: nM
endpoint.value: 3000

chem.smiles: CCOc1cc2ncnc(Nc3cccc(-c4csc(CO)n4)c3)c2cc1OCC
test.target: Fructose-1,6-bisphosphatase 1 (Rattus norvegicus, UniProt P19112, Q56H)
value.kind: IC50
endpoint.unit: nM
endpoint.value: 2900

---

# assay: Inhibition of human recombinant wild type fructose-1,6-bisphosphatase (F16BP)
value.kind: IC50 (nM)

chem.smiles: CCOc1cc2nc(CN(C)C)nc(Nc3cccc(-c4csc(C)n4)c3)c2cc1OCC
IC50 [nM]: 2000
--
chem.smiles: CCOc1cc2ncnc(Nc3cccc(-c4nccs4)c3)c2cc1OCC
IC50 [nM]: 380
--
chem.smiles: CCOc1cc2ncnc(Nc3cccc(-c4nc[nH]n4)c3)c2cc1OCC
IC50 [nM]: 640
--
chem.smiles: CCOc1cc2nc(Cn3ccnc3)nc(Nc3cccc(-c4csc(C)n4)c3)c2cc1OCC
IC50 [nM]: 770
--
chem.smiles: CCOc1cc2ncnc(Nc3cccc(-c4csc(C)n4)c3)c2cc1OCC
IC50 [nM]: 640

P. CCCc1nc(Nc2cccc(-c3csc(C)n3)c2)c2cc(OCC)c(OCC)cc2n1
Q. CCOc1cc2ncnc(Nc3cccc(-c4csc(N(C)C)n4)c3)c2cc1OCC
Enquiry: For P and Q , which recorded IC50 is lower? Field: selected label. Fill in the label of the entry you choose.
Return: P

---

# assay: Inhibition of human recombinant wild type fructose-1,6-bisphosphatase (F16BP)
pIC50: −log10 of the molar value.
value.kind: pIC50

Some solved entries appear below for comparison.
molecule: CCOc1cc2nc(C)nc(Nc3cccc(-c4csc(C)n4)c3)c2cc1OCC
pIC50: 6.00
--
molecule: C#Cc1cc(Nc2ncnc3cc(OC)c(OC)cc23)ccc1F
pIC50: 6.60
--
molecule: CCOc1cc2ncnc(Nc3cccc(-c4csc(COC)n4)c3)c2cc1OCC
pIC50: 5.14
--
molecule: CCOc1cc2ncnc(Nc3cccc(-c4csc(C(N)=O)n4)c3)c2cc1OCC
pIC50: 6.03
--
molecule: CCOc1cc2ncnc(Nc3cccc(-c4csc(C)n4)c3)c2cc1OC
pIC50: 5.47
--
molecule: CCOc1cc2ncnc(Nc3ccc(Cl)c(-c4csc(C)n4)c3)c2cc1OCC
pIC50: 5.28
--
molecule: CCOc1cc2ncnc(Nc3cc(-c4csc(C)n4)ccc3OC)c2cc1OCC
pIC50: 6.00
--
molecule: CCOc1nc(-c2cccc(Nc3ncnc4cc(OCC)c(OCC)cc34)c2)cs1
pIC50: 5.21
--
molecule: CCOc1cc2nc(Cl)nc(Nc3cccc(-c4csc(C)n4)c3)c2cc1OCC
pIC50: 5.59
--
molecule: CCC(C)Oc1cc2ncnc(Nc3cccc(-c4csc(C)n4)c3)c2cc1OC (stereo not drawn)
pIC50: 5.89

1. CCOc1cc2nc(C(C)C)nc(Nc3cccc(-c4csc(C)n4)c3)c2cc1OCC
2. CCOc1ccc(-c2csc(C)n2)cc1Nc1ncnc2cc(OCC)c(OCC)cc12
3. CCOc1cc2nc(CC(=O)O)nc(Nc3cccc(-c4csc(C)n4)c3)c2cc1OCC
4. CCOc1cc2ncnc(Nc3cccc(-c4coc(C)n4)c3)c2cc1OCC
5. CCOc1cc2nc(CCN)nc(Nc3cccc(-c4csc(C)n4)c3)c2cc1OCC
Enquiry: Which order do these items take when sorted by rising pIC50? List them. # answer = labels listed in requested order
Return: 1, 2, 3, 4, 5

A. COc1cc2ncnc(Nc3cccc(-c4csc(C)n4)c3)c2cc1OC
B. CCOc1cc2ncnc(Nc3cccc(-c4cncnc4)c3)c2cc1OCC
C. CCOc1cc2ncnc(Nc3cc(-c4csc(C)n4)ccc3CC)c2cc1OCC
D. CCOc1cc2ncnc(Nc3cc(-c4csc(C)n4)ccc3F)c2cc1OCC
Enquiry: Sequence the entries by pIC50, beginning with the highest number. Your task in answering is to list the labels in the requested order.
Return: D, B, C, A
(D: 6.32, B: 5.92, C: 5.68, A: 5.36)

P. CCOc1cc2nc(CCCCl)nc(Nc3cccc(-c4csc(C)n4)c3)c2cc1OCC
Q. CCOc1cc2nc(CN(C)C)nc(Nc3cccc(-c4csc(C(N)=O)n4)c3)c2cc1OCC
Enquiry: Returns the identifier with the smallest measured pIC50 among P and Q . Answer = label.
Return: P

I. CCOc1cc2ncnc(Nc3cccc(-c4csc(N)n4)c3)c2cc1OCC
II. CCOc1cc2ncnc(Nc3cccc(-c4csc(OC)n4)c3)c2cc1OCC
III. CCNCc1nc(Nc2cccc(-c3csc(C)n3)c2)c2cc(OCC)c(OCC)cc2n1
Enquiry: # desc sort on pIC50 across 3 molecules Note for the reader: the ranking is given by listing the labels in the order requested.
Return: II, I, III
(II: 6.11, I: 5.46, III: 5.22)

1. CCOc1cc2ncnc(Nc3cccc(-c4csc(NC)n4)c3)c2cc1OCC
2. CCCOc1cc2ncnc(Nc3cccc(-c4csc(C)n4)c3)c2cc1OC
Enquiry: So which one has the bigger pIC50 here, 1 or 2 ? // output: label of the selected item
Return: 1
(1: 6.10, 2: 5.25)

1. CCOc1cc2ncnc(Nc3cccc(-c4nc(C)cs4)c3)c2cc1OCC
2. CCOc1cc2c(Nc3cccc(-c4csc(C)n4)c3)ncnc2cc1OC
Enquiry: Which numeric pIC50 is bigger, that of 1 or that of 2 ? Indicate which entry you chose by stating its label.
Return: 1

P. CCOc1cc2ncnc(Nc3cccc(-c4csc(C5CC5)n4)c3)c2cc1OCC
Q. CCOc1cc2nc(CN)nc(Nc3cccc(-c4csc(C)n4)c3)c2cc1OCC
Enquiry: Which record shows the lower pIC50: the first, P , or the second, Q ? Response format: the label of the selected entry.
Return: Q
